STUDY_SYSTEM: Integrin alpha-4/beta-1 (Homo sapiens, UniProt P05556+P13612)
Sequence (P05556 whole entry): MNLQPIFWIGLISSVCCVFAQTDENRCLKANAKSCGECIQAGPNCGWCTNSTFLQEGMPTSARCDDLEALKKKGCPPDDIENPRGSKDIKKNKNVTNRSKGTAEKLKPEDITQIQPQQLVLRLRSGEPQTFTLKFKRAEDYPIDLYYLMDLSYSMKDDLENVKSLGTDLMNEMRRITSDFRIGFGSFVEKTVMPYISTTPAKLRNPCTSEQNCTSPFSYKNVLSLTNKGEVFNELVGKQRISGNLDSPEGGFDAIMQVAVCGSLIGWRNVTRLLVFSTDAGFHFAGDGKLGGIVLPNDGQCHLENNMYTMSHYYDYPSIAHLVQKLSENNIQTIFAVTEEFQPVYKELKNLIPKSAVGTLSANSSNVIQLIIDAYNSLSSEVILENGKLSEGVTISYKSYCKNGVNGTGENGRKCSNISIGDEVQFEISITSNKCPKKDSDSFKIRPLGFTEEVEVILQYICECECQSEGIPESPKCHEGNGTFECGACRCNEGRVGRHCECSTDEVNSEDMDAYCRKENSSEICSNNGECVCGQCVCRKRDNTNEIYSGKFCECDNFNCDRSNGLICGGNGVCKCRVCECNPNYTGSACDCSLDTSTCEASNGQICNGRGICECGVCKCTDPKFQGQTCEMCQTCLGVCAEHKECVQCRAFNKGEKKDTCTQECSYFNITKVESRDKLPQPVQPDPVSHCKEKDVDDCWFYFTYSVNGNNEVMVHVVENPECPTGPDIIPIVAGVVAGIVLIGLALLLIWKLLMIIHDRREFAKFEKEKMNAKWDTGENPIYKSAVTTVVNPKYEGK
Sequence (P13612 whole entry): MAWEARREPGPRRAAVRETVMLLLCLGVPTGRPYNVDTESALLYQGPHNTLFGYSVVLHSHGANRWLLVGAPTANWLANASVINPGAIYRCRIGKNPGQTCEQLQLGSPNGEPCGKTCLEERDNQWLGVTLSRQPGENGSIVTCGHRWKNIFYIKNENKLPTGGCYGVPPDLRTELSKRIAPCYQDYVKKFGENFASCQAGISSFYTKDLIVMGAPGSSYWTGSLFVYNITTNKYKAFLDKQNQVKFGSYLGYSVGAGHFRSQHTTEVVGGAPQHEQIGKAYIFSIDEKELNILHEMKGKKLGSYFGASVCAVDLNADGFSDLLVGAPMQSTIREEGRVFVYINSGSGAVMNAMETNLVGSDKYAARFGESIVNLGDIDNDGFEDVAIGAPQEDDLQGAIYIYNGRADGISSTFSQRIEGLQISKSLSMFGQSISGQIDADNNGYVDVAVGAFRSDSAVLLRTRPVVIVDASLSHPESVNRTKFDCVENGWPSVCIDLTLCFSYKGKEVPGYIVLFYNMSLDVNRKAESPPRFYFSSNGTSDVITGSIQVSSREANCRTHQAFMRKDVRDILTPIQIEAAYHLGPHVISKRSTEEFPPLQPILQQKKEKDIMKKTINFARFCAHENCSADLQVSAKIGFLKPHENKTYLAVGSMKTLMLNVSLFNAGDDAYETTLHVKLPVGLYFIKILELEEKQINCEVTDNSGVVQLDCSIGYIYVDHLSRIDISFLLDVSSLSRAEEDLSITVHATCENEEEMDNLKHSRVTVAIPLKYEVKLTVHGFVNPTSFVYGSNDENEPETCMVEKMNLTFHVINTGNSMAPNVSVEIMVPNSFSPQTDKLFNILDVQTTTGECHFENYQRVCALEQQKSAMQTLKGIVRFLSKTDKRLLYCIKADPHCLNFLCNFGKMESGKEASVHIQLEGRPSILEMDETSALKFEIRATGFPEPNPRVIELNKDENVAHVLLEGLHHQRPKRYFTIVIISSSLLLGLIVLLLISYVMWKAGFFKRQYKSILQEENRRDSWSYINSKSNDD
PROTOCOL_SUMMARY: Antagonist activity at alpha4beta1 integrin
Hi there, I'd appreciate the recorded log10 IC50 for every entry that follows.
Give log10 of IC50, with IC50 taken in nM.

Request: Return log10 IC50 measured with Integrin alpha-4/beta-1 (Homo sapiens, UniProt P05556+P13612) given this compound: "COCCCC[C@@]1(C(=O)N[C@H](Cc2ccc(-c3c(OC)cccc3OC)cc2)C(=O)O)CCCO1"
Response: 0.10

Request: Return log10 IC50 measured with Integrin alpha-4/beta-1 (Homo sapiens, UniProt P05556+P13612) given this compound: "O=C(O)[C@@H](CSSCCNC(=O)C12CC3CC(CC(C3)C1)C2)NC12CC3CC(CC(C3)C1)C2"
Response: 3.61

Request: Return log10 IC50 measured with Integrin alpha-4/beta-1 (Homo sapiens, UniProt P05556+P13612) given this compound: "COc1cccc(OC)c1-c1ccc(C[C@H](NC[C@@H]2CCCN2S(=O)(=O)c2cc(Cl)cc(Cl)c2)C(=O)O)cc1"
Response: 2.15

Request: Return log10 IC50 measured with Integrin alpha-4/beta-1 (Homo sapiens, UniProt P05556+P13612) given this compound: "COc1cccc(OC)c1-c1ccc(C[C@@H](NC(=O)[C@@]2(C)CCN2S(=O)(=O)c2cc(Cl)cc(Cl)c2)C(=O)O)cc1"
Response: -1.15

Request: Return log10 IC50 measured with Integrin alpha-4/beta-1 (Homo sapiens, UniProt P05556+P13612) given this compound: "O=C(O)CC[C@H](NCS(=O)(=O)c1ccccc1)C(=O)N[C@@H](Cc1ccc(OCc2c(Cl)cccc2Cl)cc1)C(=O)O"
Response: 0.30

Request: Return log10 IC50 measured with Integrin alpha-4/beta-1 (Homo sapiens, UniProt P05556+P13612) given this compound: "COc1ccccc1-c1ccc(C[C@H](NC(=O)Cc2ccccc2Cl)C(=O)O)cc1"
Response: 1.57

Request: Return log10 IC50 measured with Integrin alpha-4/beta-1 (Homo sapiens, UniProt P05556+P13612) given this compound: "CS(=O)(=O)CCCCC1(C(=O)N[C@H](Cc2ccc(NC(=O)c3c(Cl)cccc3Cl)cc2)C(=O)O)CCC1"
Response: 0.78

Request: Return log10 IC50 measured with Integrin alpha-4/beta-1 (Homo sapiens, UniProt P05556+P13612) given this compound: "CC(C)C(=O)Oc1cccc(OC(=O)C(C)C)c1-c1ccc(C[C@@H](NC(=O)[C@@]2(C)CCCN2S(=O)(=O)c2cc(Cl)cc(Cl)c2)C(=O)O)cc1"
Response: 0.65

Request: Return log10 IC50 measured with Integrin alpha-4/beta-1 (Homo sapiens, UniProt P05556+P13612) given this compound: "O=C(Nc1ccc(C[C@H](NC(=O)[C@@H]2C3CCC(CC3)N2S(=O)(=O)c2ccccc2Cl)C(=O)O)cc1)c1cc(Cl)nc(Cl)c1"
Response: 2.02

Request: Return log10 IC50 measured with Integrin alpha-4/beta-1 (Homo sapiens, UniProt P05556+P13612) given this compound: "CCCNc1c(N[C@@H](Cc2ccc(OCc3c(Cl)cccc3Cl)cc2)C(=O)O)c(=O)c1=O"
Response: 1.83
